All values here come from patent US20220204630A1.

- experimental.target: T1, TrkA protein on HEK-293T-TrkA cells or NIH-3T3-TrkA cells (human, UniProt P04629 33-796)
- T1 construct: whole, on cells; Printed only as TrkA for these cells; also called TrkA protein on the membrane of NIH-3T3-TrkA cells
- T1 sequence (P04629 33-796): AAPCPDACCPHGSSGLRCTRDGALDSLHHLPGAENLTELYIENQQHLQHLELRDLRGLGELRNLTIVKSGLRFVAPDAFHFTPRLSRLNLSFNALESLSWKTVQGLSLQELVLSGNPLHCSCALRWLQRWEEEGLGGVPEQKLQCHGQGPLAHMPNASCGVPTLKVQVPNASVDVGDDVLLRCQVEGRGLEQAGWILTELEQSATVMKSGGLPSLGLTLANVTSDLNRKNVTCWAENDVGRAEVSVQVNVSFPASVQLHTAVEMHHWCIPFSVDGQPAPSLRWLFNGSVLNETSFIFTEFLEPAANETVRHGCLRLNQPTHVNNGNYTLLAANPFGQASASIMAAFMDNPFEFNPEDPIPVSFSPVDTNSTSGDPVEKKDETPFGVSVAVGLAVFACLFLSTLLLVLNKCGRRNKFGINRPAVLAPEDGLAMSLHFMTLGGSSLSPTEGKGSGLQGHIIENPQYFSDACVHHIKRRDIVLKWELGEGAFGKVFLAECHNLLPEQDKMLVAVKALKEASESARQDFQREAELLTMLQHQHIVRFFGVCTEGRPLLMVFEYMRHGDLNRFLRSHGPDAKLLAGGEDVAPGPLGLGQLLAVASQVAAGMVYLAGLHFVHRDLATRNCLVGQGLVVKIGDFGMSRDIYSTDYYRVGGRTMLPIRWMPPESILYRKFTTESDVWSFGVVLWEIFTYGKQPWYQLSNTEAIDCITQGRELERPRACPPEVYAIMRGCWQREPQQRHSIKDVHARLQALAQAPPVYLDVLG
- assay.info: flow cytometry on HEK-293T-TrKA cells
assay.endpoint: EC50

1) 2008 chimeric antibody (antibody, human IgG4 S228P, kappa, F234A L235A, V domains shown, also called 20C8) VH: EVLLQQSGPELVKPGASMKISCKASVYSFTAYTMNWVKQSHGKNLEWIGLINPHNGGTRYNQKFKGKATLTLDKSSSTAYMDLLSLTSEDSAVYYCAISRYGSSSFYFDVWGAGTTVAVSS VL: QIVLSQSPAILSASPGEKVTMTCRASSSISYMHWYQQKPGSSPKPWISATSNLASGVPARFSGSGSGTSYSLTISGVEAEDAATYYCQQWSSNPPTFGGGTNLEIKR; < 1.5 µg/mL

Q) I would be grateful if you could share the reported EC50 for 23E12 chimeric antibody (antibody, human IgG4 S228P, kappa, F234A L235A, V domains shown, expressed in CHO cells) VH: QVQLQQSGAELVRPGTSVKISCKASGYAFTNYWLGWMKQRPGHGLEWIGDFYPRTGNTFYNENFKGKVTLTADKSSNTAYMQLSSLTSEDSAVYLCARAGTGFDYWGQGTTLTVSS VL: SIVMTQSPKSMSMSVGERVTLSCKASENVGGYVSWYQQKPDQSPKLLIYGASSRHTGVPDRFTGSGSETDFTLTISSVQAEDLAAYHCGQNYIYPFTFGGGTKLEIKR .
A) < 1.5 µg/mL
